B1: MFF (parent)
chain: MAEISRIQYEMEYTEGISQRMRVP

Variants of: B1
Assay: protein stability index of a GFP-peptide fusion (GPS, HEK-293T) (PSI 1-6); higher = more stable;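 also: lentivirally expressed fusions sorted by FACS into six bins by GFP to DsRed ratio, PSI derived from sequencing read proportions per bin multiplied by bin number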
Conditions: c terminus: a fixed tail appended
Reported protein stability index values for a set of variants

MAEISRIQYEMEYTEGISQRMRFP [V23F]: 1.99
MAEISRIQYEMEYTEGISQIMRVP [R20I]: 2.05
MAENSRIQYEMEYTEGISQRMRVP [I4N]: 3.71
MAEISRIQDEMEYTEGISQRMRVP [Y9D]: 3.85

[in] Any idea what its protein stability index is? The variant is MAEISRIQFEMEYTEGISQRMRVP [Y9F]
[out] 2.11

[in] Query MAEISRIQYEMEYTEGIVQRMRVP [S18V] next
[out] 1.74

[in] Subsequent entry: MAEISRIQYEFEYTEGISQRMRVP [M11F]
[out] 2.35

[in] Entry MAEISLIQYEMEYTEGISQRMRVP [R6L] please
[out] 1.71

[in] Next variant: MAEISRIQYEMEQTEGISQRMRVP [Y13Q]
[out] 3.35

The origin of these recorded values is the supplement of paper PMC10567573.
